// provenance: the supplement of paper PMC10567573

B1: ATL3 (parent)
chain: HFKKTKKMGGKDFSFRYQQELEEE

variants of: B1; assay: protein stability index of a GFP-peptide fusion (GPS, HEK-293T) (PSI 1-6); higher = more stable; details: c terminus: a fixed tail appended;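 further: lentivirally expressed fusions sorted by FACS into six bins by GFP to DsRed ratio, PSI derived from sequencing read proportions per bin multiplied by bin number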
Endpoint label: protein stability index
Answers are plain numbers.

Examples from the recorded data:
1) Y17Q ... 4.78
2) E22T ... 2.03
3) E23F ... 2.27

Quick one: give me protein stability index for each item below, same order please.
1. F13P
2. T5I

Given back:
1. 4.29
2. 2.17

Quick one: give me protein stability index for each item below, same order please.
1. E24V
2. G10Y
3. T5L
4. G9Q

Given back:
[3.28, 1.79, 2.53, 1.96]

Quick one: give me protein stability index for each item below, same order please.
1. K3L
2. T5Y
3. K7R
4. E20Y
5. K4S
6. G9S

Given back:
[1.98, 1.75, 1.65, 3.14, 3.01, 1.75]

Quick one: give me protein stability index for each item below, same order please.
1. F2C
2. L21Q
3. H1M
4. M8F

Given back:
1: 1.8; 2: 2.4; 3: 2.32; 4: 1.68

Quick one: give me protein stability index for each item below, same order please.
1. F13S
2. L21F
3. F13L
4. F2Y
5. Q19F
6. Q19I
7. G9C
8. E23Q

Given back:
4.83
1.53
4.45
2.1
1.71
1.46
2.61
1.81

Quick one: give me protein stability index for each item below, same order please.
1. F2S
2. E22I
3. G9Y
4. E23V
5. Y17T
6. F15L
7. Y17H
8. R16V

Given back:
1.91
1.79
1.74
2.27
2.38
2.46
3.72
2.54

Quick one: give me protein stability index for each item below, same order please.
1. F15C
2. G9D
3. G10Q
4. K3D
5. Q18K
6. F15G
7. G9P

Given back:
1. 3.07
2. 2.23
3. 1.86
4. 2.34
5. 2.09
6. 2.22
7. 2.05

Quick one: give me protein stability index for each item below, same order please.
1. Q18P
2. K4I
3. F2N
4. G10K

Given back:
1: 4.2; 2: 1.66; 3: 2.28; 4: 2.56
